System: A549
Experiment: Antiproliferative activity against human A549 cells assessed as cell growth inhibition incubated for 48 hrs by MTT assay
Format: functional, cell-based
Conditions: A549, 48 h
# Lookup of reported IC50 keyed by entry

structure string: COc1cc(-c2nccc3nc(Nc4cccc5cc[nH]c45)nn23)cc(OC)c1OC
IC50: 257 nM
--
structure string: COc1cc(Nc2nc3ccnc(-c4cccc5[nH]ccc45)n3n2)cc(OC)c1OC
IC50: 1860 nM
--
structure string: COc1cc(-c2ccnc3nc(Nc4cccc5[nH]ccc45)nn23)cc(OC)c1OC
IC50: 85 nM
--
structure string: COc1cc(-c2nccc3nc(Nc4ccc5c(ccn5C)c4)nn23)cc(OC)c1OC
IC50: 92 nM
--
structure string: COc1ccc(Nc2nc3ccnc(-c4cc(OC)c(OC)c(OC)c4)n3n2)cc1N
IC50: 201 nM
--
structure string: COc1cc(-c2nccc3nc(Nc4ccc5c6ccccc6n(C)c5c4)nn23)cc(OC)c1OC
IC50: > 10000 nM
--
structure string: CN1CCN(c2cccc(Nc3nc4c(-c5ccc(S(C)(=O)=O)cc5)cccn4n3)c2)CC1
IC50: 358 nM
--
structure string: COc1cc(-c2nccc3nc(Nc4ccc5c(c4)c4ccccc4n5C)nn23)cc(OC)c1OC
IC50: 996 nM
--
structure string: COc1cc(-c2nccc3nc(Nc4cccc5[nH]ccc45)nn23)cc(OC)c1OC
IC50: 8 nM

----------
Target: Tyrosine-protein kinase JAK2 (Homo sapiens)
Sequence (O60674 whole entry): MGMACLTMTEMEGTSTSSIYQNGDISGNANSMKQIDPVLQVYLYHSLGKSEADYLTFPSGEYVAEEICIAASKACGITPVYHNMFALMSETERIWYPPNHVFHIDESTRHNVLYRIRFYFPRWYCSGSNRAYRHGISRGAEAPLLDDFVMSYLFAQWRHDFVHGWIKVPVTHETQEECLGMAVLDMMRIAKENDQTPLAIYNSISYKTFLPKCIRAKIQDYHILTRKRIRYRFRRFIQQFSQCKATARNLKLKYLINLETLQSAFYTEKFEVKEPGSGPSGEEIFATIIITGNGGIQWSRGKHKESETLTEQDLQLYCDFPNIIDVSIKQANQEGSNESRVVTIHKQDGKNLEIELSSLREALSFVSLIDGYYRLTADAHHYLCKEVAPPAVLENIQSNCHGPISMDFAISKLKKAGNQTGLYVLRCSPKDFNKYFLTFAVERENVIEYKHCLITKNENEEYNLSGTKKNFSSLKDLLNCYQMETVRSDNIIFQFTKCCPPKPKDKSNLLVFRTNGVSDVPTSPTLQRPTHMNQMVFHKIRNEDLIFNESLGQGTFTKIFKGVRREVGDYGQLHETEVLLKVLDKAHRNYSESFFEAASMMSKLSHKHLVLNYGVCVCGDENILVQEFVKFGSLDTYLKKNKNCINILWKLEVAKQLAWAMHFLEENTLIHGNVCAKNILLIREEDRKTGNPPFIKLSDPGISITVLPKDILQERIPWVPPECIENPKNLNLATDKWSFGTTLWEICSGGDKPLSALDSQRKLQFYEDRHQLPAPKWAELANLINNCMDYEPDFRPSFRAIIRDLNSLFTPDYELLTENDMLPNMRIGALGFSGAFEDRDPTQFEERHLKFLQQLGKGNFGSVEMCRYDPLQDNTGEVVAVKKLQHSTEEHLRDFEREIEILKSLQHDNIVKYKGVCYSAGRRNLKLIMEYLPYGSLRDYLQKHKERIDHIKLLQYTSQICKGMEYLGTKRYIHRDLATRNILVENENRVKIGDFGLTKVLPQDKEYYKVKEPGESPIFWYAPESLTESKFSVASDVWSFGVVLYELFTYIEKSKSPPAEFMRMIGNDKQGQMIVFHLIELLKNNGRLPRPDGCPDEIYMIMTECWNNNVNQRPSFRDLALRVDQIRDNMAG
Experiment: Inhibition of JAK2 (unknown origin) using Poly-(Glu,Tyr 4:1) peptide as substrate at 1 uM in presence of ATP by ADP-Glo reagent based assay relative to control
Decision: inhibition >= 80% yields Fulfilled, all other cases yield Not fulfilled.

structure string: COc1cc(-c2nccc3nc(Nc4ccc(C)c(O)c4)nn23)cc(OC)c1OC
group label: Not fulfilled
//
structure string: CN1CCN(c2cccc(Nc3nc4c(-c5ccc(S(C)(=O)=O)cc5)cccn4n3)c2)CC1
group label: Fulfilled
//
structure string: COc1cc(-c2nccc3nc(Nc4cccc5[nH]ccc45)nn23)cc(OC)c1OC
group label: Fulfilled
//
structure string: COc1cc(-c2nccc3nc(Nc4ccc5[nH]ccc5c4)nn23)cc(OC)c1OC
group label: Fulfilled
//
structure string: COc1ccc(Nc2nc3ccnc(-c4cc(OC)c(OC)c(OC)c4)n3n2)cc1N
group label: Fulfilled
//
structure string: COc1ccc(Nc2nc3ccnc(-c4cc(OC)c(OC)c(OC)c4)n3n2)cc1O
group label: Not fulfilled
//
structure string: COc1cc(-c2nccc3nc(Nc4ccc5c(ccn5C)c4)nn23)cc(OC)c1OC
group label: Not fulfilled
//
structure string: COc1cc(-c2nccc3nc(Nc4cccc5cc[nH]c45)nn23)cc(OC)c1OC
group label: Not fulfilled
//
structure string: COc1cc(-c2nccc3nc(Nc4cccc5c4ccn5C)nn23)cc(OC)c1OC
group label: Not fulfilled
//
structure string: COc1cc(-c2nccc3nc(Nc4ccc5ccn(C)c5c4)nn23)cc(OC)c1OC
group label: Not fulfilled
//
structure string: COc1cc(-c2nccc3nc(Nc4ccc5cc[nH]c5c4)nn23)cc(OC)c1OC
group label: Not fulfilled
//
structure string: COc1cc2c(c(OC)c1OC)-c1ccc(OC)c(=O)cc1[C@@H](NC(C)=O)CC2
group label: Not fulfilled

----------
Assay: Antiproliferative activity against Chinese hamster CHO cells assessed as cell growth inhibition incubated for 48 hrs by MTT assay
Format: toxicity, cell-based, Cricetulus griseus

structure string: CN1CCN(c2cccc(Nc3nc4c(-c5ccc(S(C)(=O)=O)cc5)cccn4n3)c2)CC1
IC50 at 48 h (nM): 172
--
structure string: COc1cc2c(c(OC)c1OC)-c1ccc(OC)c(=O)cc1[C@@H](NC(C)=O)CC2
IC50 at 48 h (nM): 697
--
structure string: COc1cc(-c2nccc3nc(Nc4cccc5[nH]ccc45)nn23)cc(OC)c1OC
IC50 at 48 h (nM): 24

----------
Test: AUC (0 to t) in CD-1 mouse at 13 mg/kg,ip measured upto 24 hrs by HPLC-MS/MS analysis
Type: ADME, organism-based
Set-up: time < 24 hrs, dose 13 mg/kg, route ip
Details: in vivo

structure string: COc1cc(-c2nccc3nc(Nc4cccc5c4ccn5P(=O)([O-])[O-])nn23)cc(OC)c1OC.[Na+].[Na+]
result unit: ng·h/mL
AUC(0-t) at 24 h: 850

----------
Test: Cmax in CD-1 mouse at 13 mg/kg,ip measured upto 24 hrs by HPLC-MS/MS analysis
Type: ADME, organism-based
Design: time < 24 hrs, dose 13 mg/kg, route ip
Settings: in vivo

structure string: COc1cc(-c2nccc3nc(Nc4cccc5c4ccn5P(=O)([O-])[O-])nn23)cc(OC)c1OC.[Na+].[Na+]
Cmax: 334 ng/mL

----------
pIC50 values by entry
System: NCI/ADR-RES
Experiment: cells
Settings: Homo sapiens, 48 h
Description: Antiproliferative activity against human MCF7ADR cells assessed as cell growth inhibition incubated for 48 hrs by MTT assay
pIC50: −log10 of the molar value.

structure string: CN1CCN(c2cccc(Nc3nc4c(-c5ccc(S(C)(=O)=O)cc5)cccn4n3)c2)CC1
pIC50: 5.45
//
structure string: COc1cc(-c2nccc3nc(Nc4cccc5[nH]ccc45)nn23)cc(OC)c1OC
pIC50: 7.19

----------
Listing of entries alongside the reported IC50.
Tested on: CWR22R
Assay: Cytotoxicity against human 22Rv1 cells assessed as cell growth inhibition incubated for 48 hrs by MTT assay
Assay type: functional, cell-based
Details: 22Rv1, 48 h

compound: CN1CCN(c2cccc(Nc3nc4c(-c5ccc(S(C)(=O)=O)cc5)cccn4n3)c2)CC1
result unit: nM
IC50: 5790

compound: COc1cc2c(c(OC)c1OC)-c1ccc(OC)c(=O)cc1[C@@H](NC(C)=O)CC2 [COLCHICINE]
result unit: nM
IC50: 18

compound: COc1cc(-c2nccc3nc(Nc4cccc5[nH]ccc45)nn23)cc(OC)c1OC
result unit: nM
IC50: 12.4

----------
Test: Tmax in CD-1 mouse at 13 mg/kg,ip measured upto 24 hrs by HPLC-MS/MS analysis
Format: ADME, organism-based
Settings: in vivo
measured parameter: Tmax

structure string: COc1cc(-c2nccc3nc(Nc4cccc5c4ccn5P(=O)([O-])[O-])nn23)cc(OC)c1OC.[Na+].[Na+]
measured parameter: Tmax
test value: 6 min

----------
Measured half-life, listed per entry for reference.
Assay: Metabolic stability in mouse liver microsomes assessed as half life incubated for 10 mins in presence of NADPH by LC-MS/MS analysis
Assay type: ADME, Microsome

structure string: COc1cc(-c2nccc3nc(Nc4cccc5[nH]ccc45)nn23)cc(OC)c1OC
half-life / min: 21.7

structure string: CN1CCN(c2cccc(Nc3nc4c(-c5ccc(S(C)(=O)=O)cc5)cccn4n3)c2)CC1
half-life / min: 13.1

----------
Target: Tubulin (Sus scrofa, UniProt P02554+P02550)
Experiment: Inhibition of porcine brain tubulin polymerization measured for 30 mins in presence of GTP by microplate reader assay
Assay type: tissue-based
Rule: IC50 below 9 µM gives yes. Equal to or above 9 µM gives no.

structure string: COc1ccc(Nc2nc3ccnc(-c4cc(OC)c(OC)c(OC)c4)n3n2)cc1N
group label: yes

structure string: COc1cc(-c2nccc3nc(Nc4cccc5[nH]ccc45)nn23)cc(OC)c1OC
group label: yes

structure string: COc1cc(-c2nccc3nc(Nc4ccc5c(ccn5C)c4)nn23)cc(OC)c1OC
group label: no

structure string: COc1cc(-c2nccc3nc(Nc4cccc5c4ccn5C)nn23)cc(OC)c1OC
group label: yes

----------
Catalogue of log10 of IC50 values
Tested on: A549
Test: Antiproliferative activity against human A549 cells assessed as cell growth inhibition incubated for 48 hrs by MTT assay
Assay type: functional, cell-based
Conditions: A549, 48 h
measured parameter: log10 of IC50 (log10 of the value in nM)

compound: COc1ccc(-c2ccc3nnc(Nc4cc(OC)c(OC)c(OC)c4)n3c2)cc1O
log10 of IC50: 3.60

compound: COc1cc(-c2nccc3nc(Nc4cccc5c4ccn5P(=O)([O-])[O-])nn23)cc(OC)c1OC.[Na+].[Na+]
log10 of IC50: 1.08

compound: COc1cc(-c2nccc3nc(Nc4ccc5[nH]ccc5c4)nn23)cc(OC)c1OC
log10 of IC50: 1.91

compound: COc1cc(-c2nccc3nc(Nc4ccc5cc[nH]c5c4)nn23)cc(OC)c1OC
log10 of IC50: 1.93

compound: COc1cc(-c2cccc3nc(Nc4cccc5[nH]ccc45)nn23)cc(OC)c1OC
log10 of IC50: 1.81

compound: COc1cc2c(c(OC)c1OC)-c1ccc(OC)c(=O)cc1[C@@H](NC(C)=O)CC2 [COLCHICINE]
log10 of IC50: 1.81

compound: COc1ccc(Nc2nc3ccnc(-c4cc(OC)c(OC)c(OC)c4)n3n2)cc1O
log10 of IC50: 2.70

compound: COc1cc(-c2cncc3nc(Nc4cccc5[nH]ccc45)nn23)cc(OC)c1OC
log10 of IC50: 3.40

compound: COc1cc(-c2nccc3nc(Nc4ccc(C)c(O)c4)nn23)cc(OC)c1OC
log10 of IC50: 2.55

compound: COc1cc(-c2nccc3nc(Nc4cccc5c4ccn5C)nn23)cc(OC)c1OC
log10 of IC50: 1.11

compound: COc1cc(-c2ccnc3nc(Nc4cccc5c4ccn5C)nn23)cc(OC)c1OC
log10 of IC50: 1.11

compound: COc1ccc(Nc2nc3ccnc(-c4cc(OC)c(OC)c(OC)c4)n3n2)cc1[N+](=O)[O-]
log10 of IC50: 3.38

compound: COc1cc(-c2cncc3nc(Nc4cccc5c4ccn5C)nn23)cc(OC)c1OC
log10 of IC50: 3.85
